# system_name: hmGlu5 (Homo sapiens, UniProt P41594)
# Construct: expressed in transfected cells; host or cells: HEK 293A
# Sequence (P41594 21-1212): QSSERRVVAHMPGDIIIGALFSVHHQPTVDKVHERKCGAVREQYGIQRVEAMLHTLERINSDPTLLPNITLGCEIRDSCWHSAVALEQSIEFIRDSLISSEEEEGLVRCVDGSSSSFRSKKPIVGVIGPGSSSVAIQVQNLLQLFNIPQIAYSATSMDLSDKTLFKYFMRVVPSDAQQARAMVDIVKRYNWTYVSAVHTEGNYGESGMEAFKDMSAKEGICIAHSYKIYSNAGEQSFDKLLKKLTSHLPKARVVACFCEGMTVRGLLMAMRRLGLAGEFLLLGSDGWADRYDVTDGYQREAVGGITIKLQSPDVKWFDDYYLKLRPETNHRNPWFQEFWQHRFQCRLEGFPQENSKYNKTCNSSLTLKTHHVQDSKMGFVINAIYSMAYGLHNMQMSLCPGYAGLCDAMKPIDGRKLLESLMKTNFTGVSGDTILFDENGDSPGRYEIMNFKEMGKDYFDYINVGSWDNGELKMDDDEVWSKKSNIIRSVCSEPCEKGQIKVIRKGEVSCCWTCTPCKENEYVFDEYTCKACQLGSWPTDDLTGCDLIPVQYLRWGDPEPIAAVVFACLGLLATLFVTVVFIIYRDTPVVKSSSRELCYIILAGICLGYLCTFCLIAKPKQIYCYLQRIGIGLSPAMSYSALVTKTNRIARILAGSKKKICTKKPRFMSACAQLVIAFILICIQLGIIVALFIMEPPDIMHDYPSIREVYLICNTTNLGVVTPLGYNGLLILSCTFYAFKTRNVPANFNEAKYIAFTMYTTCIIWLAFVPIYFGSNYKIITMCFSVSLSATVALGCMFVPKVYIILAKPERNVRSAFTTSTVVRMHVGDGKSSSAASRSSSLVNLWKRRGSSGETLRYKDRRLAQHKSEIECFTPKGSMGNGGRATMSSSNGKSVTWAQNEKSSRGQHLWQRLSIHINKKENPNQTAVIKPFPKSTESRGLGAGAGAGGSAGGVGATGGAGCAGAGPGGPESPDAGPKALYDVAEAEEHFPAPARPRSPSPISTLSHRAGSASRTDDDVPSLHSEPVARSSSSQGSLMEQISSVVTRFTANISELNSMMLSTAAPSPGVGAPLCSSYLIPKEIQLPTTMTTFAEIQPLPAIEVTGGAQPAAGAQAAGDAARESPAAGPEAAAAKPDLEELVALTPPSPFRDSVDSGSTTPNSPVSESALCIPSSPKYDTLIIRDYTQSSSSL
# procedure_details: mGlu5 Ca2+ flux assay in HEK 293A cells (negative allosteric modulation of glutamate EC80 response)
# Assay type: cell-based
# measurement_conditions: HEK293-A; % Glu max at 30 μM; read-out: hmGlu5 NAM Emin (%)
readout_kind: remaining activity at 30 µM

[[record]]
given_smiles = "Cc1cc(O[C@@H]2CCOC2)cc(-c2noc(-c3ccccn3)n2)n1"
readout_kind = "remaining activity at 30 µM"
measurement = "2%"

[[record]]
given_smiles = "COc1ccnc(-c2nc(-c3cc(-c4cnccc4C)c(F)c(C)n3)no2)c1"
readout_kind = "remaining activity at 30 µM"
measurement = "12%"

[[record]]
given_smiles = "Cc1nc(-c2noc(-c3ccc(F)cn3)n2)cc(-c2cncc(C(C)(C)O)c2)c1F"
readout_kind = "remaining activity at 30 µM"
measurement = "5%"

[[record]]
given_smiles = "CCn1cc(-c2cc(-c3noc(-c4nc(C)cs4)n3)nc(C)c2F)cn1"
readout_kind = "remaining activity at 30 µM"
measurement = "25%"

[[record]]
given_smiles = "COc1c(-c2cnn(C(F)F)c2)cc(-c2noc(-c3ccc(F)cn3)n2)nc1C"
readout_kind = "remaining activity at 30 µM"
measurement = "2%"

[[record]]
given_smiles = "Cc1nc(-c2nnc(-c3ccc(F)cn3)o2)cc(-c2cnsc2)c1F"
readout_kind = "remaining activity at 30 µM"
measurement = "2%"

[[record]]
given_smiles = "Cc1cncc(-c2nc(-c3cc(-c4cnccc4C)c(F)c(C)n3)no2)c1"
readout_kind = "remaining activity at 30 µM"
measurement = "13%"

[[record]]
given_smiles = "Cc1nc(-c2nc(-c3ccc(F)cc3)no2)cc(-c2cncc(F)c2)c1F"
readout_kind = "remaining activity at 30 µM"
measurement = "3%"


----------
# system_name: hmGlu5 (Homo sapiens, UniProt P41594)
# Construct: expressed in transfected cells; host or cells: HEK 293A
# procedure_details: mGlu5 Ca2+ flux assay in HEK 293A cells (negative allosteric modulation of glutamate EC80 response)
# Format: cell-based
readout_kind: IC50

[[record]]
given_smiles = "Cc1nc(-c2nnc(-c3ccncc3)o2)cc(-c2cncc(F)c2)c1F"
system_name = "hmGlu5 (Homo sapiens, UniProt P41594)"
measurement = "> 10 µM"


----------
# system_name: hmGlu5 (Homo sapiens)
# Construct: expressed in transfected cells; host or cells: HEK 293A
# procedure_details: mGlu5 Ca2+ flux assay in HEK 293A cells (negative allosteric modulation of glutamate EC80 response)
# Format: cell-based
# measurement_conditions: HEK293-A; % Glu max at 30 μM; read-out: hmGlu5 NAM Emin (%)
Strictly below 2% in remaining activity at 30 µM: yes (1). Otherwise: no (0).

[[record]]
compound = "Cc1cc(CC2CCOC2)cc(-c2noc(-c3ccc(F)cn3)n2)n1 (centres unmarked) [Compound 86]"
group = "yes (1)"

[[record]]
compound = "[2H]C([2H])([2H])Oc1c(-c2cncc(F)c2)cc(-c2nc(-c3ccc(F)cn3)no2)nc1C [Compound 103]"
group = "no (0)"

[[record]]
compound = "Cc1ccncc1-c1cc(-c2noc(-c3ccc(F)cn3)n2)nc(C(F)F)c1 [Compound 60]"
group = "no (0)"

[[record]]
compound = "Cc1nc(-c2noc(-c3ccc(F)cc3)n2)cc(-c2cncc(F)c2)c1F [Compound 48]"
group = "no (0)"

[[record]]
compound = "Cc1ccncc1-c1cc(-c2noc(C(C)c3ccccc3)n2)nc(C)c1F (centres unmarked) [Compound 95]"
group = "no (0)"

[[record]]
compound = "Cc1nc(-c2noc(-c3cccnc3)n2)cc(-c2cncc(F)c2)c1F [Compound 50]"
group = "no (0)"

